FYI, the data here is from patent US10421756B2.

Target: HDAC1 (Homo sapiens (Human), UniProt Q13547)
Sequence (Q13547 whole entry): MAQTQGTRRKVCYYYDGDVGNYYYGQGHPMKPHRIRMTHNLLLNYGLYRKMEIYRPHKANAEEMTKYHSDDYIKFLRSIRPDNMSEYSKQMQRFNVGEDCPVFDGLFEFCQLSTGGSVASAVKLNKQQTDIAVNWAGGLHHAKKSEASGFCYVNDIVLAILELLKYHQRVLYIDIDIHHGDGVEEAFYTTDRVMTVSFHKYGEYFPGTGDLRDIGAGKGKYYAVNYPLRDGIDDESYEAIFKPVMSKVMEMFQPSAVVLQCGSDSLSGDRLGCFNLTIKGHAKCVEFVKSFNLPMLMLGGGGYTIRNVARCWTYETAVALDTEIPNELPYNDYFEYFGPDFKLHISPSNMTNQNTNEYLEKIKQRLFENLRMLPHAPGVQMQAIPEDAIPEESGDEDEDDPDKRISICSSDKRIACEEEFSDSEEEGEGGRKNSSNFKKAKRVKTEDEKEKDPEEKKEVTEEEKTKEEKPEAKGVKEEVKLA
Experiment: Reporter displacement assay (HDAC1)
Format: binding
quantity: residence time (min)
State the answer as a number, implicitly in min.

*Q* Using the record for Nc1ccc(-c2ccncc2)cc1NC(=O)N1CCC2(CC1)CCN(C1COC1)C2 , report its residence time.
*A* 259

*Q* Next up: Nc1ccc(-c2cccnc2)cc1NC(=O)N1Cc2ccncc2C1
*A* 192

*Q* Next up: Nc1ccc(-c2ccc(C(F)(F)F)cc2F)cc1NC(=O)N1Cc2ccncc2C1
*A* 47

*Q* Next up: Nc1ccc(-c2ccncc2)cc1NC(=O)c1cn2c(n1)CNCC2
*A* 1050

*Q* Next up: Nc1ccc(-c2ccc(F)cc2)cc1NC(=O)c1cn2c(n1)CNCC2
*A* 1480

*Q* Next up: Nc1ccc(-c2ccncc2)cc1NC(=O)N1Cc2ccncc2C1
*A* 1240

*Q* Next up: Nc1ccc(-c2ccc(F)cc2)cc1NC(=O)N1CC2CCNCC2C1 (stereo not shown)
*A* 342

*Q* Next up: Nc1ccc(-c2ccc(F)cc2)cc1NC(=O)N1CCC2(CCOC2)CC1
*A* 1210

*Q* Next up: Nc1ccc(-c2ccccn2)cc1NC(=O)N1Cc2ccncc2C1
*A* 540

*Q* Next up: Nc1ccc(-c2ccc(F)c(F)c2)cc1NC(=O)c1cn2c(n1)CNCC2
*A* 695

*Q* Next up: Nc1ccc(-c2ccc(F)cc2)cc1NC(=O)N1CC2(CCCCO2)C1
*A* 457

*Q* Next up: CNC(=O)N1CC2CN(C(=O)Nc3cc(-c4ccc(F)cc4)ccc3N)CC2C1 (stereo not shown)
*A* 1550

*Q* Next up: COCCN1CCC2(CCN(C(=O)Nc3cc(-c4ccncc4)ccc3N)CC2)C1
*A* 941

*Q* Next up: COc1ccc(-c2ccc(N)c(NC(=O)N3Cc4ccncc4C3)c2)cc1
*A* 1450

*Q* Next up: Nc1ccc(-c2ccc(F)cc2)cc1NC(=O)N1CC2CN(C3COC3)CC2C1 (stereo not shown)
*A* 937

====

Below, each entry is listed with its recorded log10(residence time).
Target: HDAC2 (Homo sapiens (Human), UniProt Q92769)
Sequence (Q92769 whole entry): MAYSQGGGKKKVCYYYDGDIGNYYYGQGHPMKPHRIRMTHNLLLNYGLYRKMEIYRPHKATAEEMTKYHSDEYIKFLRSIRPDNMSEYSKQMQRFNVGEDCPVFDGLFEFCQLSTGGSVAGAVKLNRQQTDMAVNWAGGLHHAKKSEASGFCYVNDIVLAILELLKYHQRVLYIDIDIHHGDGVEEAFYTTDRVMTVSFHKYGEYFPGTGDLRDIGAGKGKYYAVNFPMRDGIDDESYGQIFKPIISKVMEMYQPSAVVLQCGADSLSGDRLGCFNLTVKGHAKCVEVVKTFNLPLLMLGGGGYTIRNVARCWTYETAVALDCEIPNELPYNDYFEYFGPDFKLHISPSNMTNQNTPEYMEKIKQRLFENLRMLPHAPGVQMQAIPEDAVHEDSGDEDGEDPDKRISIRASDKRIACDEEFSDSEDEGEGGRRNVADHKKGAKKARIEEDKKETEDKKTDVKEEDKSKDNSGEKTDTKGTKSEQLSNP
Test: Reporter displacement assay (HDAC2)
Type: binding
Form field - Quantity: residence time; Unit: min; Scale: log10

Some molecules with recorded log10(residence time):
[[record]]
molecule = "Nc1ccc(-c2ccc(F)cc2)cc1NC(=O)N1CCC2(CCOC2)CC1 [Compound 173]"
numeric_value = 3.10

[[record]]
molecule = "N#Cc1ccc(-c2ccc(N)c(NC(=O)N3Cc4ccncc4C3)c2)cc1 [Compound 149]"
numeric_value = 2.76


*Q* Using the record for Nc1ccc(-c2ccc(Cl)cc2)cc1NC(=O)N1Cc2ccncc2C1 [Compound 130] , report its log10(residence time).
*A* 3.11

*Q* Next up: N#CC1CCc2nc(C(=O)Nc3cc(-c4ccc(F)cc4)ccc3N)cn2C1 (stereo not drawn) [Compound 128]
*A* 3.18

*Q* Next up: Nc1ccc(-c2ccncc2)cc1NC(=O)N1Cc2ccncc2C1 [Compound 102]
*A* 3.15

====

Target: HDAC1 (Homo sapiens (Human))
Test: Reporter displacement assay (HDAC1)
Type: binding
Experimental: [The procedure below names another target; the source lists this target under the same test.] HDAC2 containing a C-terminal HIS-Tag (Proteros) and fluorescently-labeled anti-HIS-antibody are diluted in one vial in assay buffer 50 mM Tris, pH 8.0, 1 mM DTT, 150 mM NaCl, and 0.01% Tween20. […] For Kd determination, percent probe displacement values are calculated for each compound concentration and plotted against the compound concentration. […]
Below, each entry is listed with its recorded residence time.
Write the quantity with the unit trailing the number.

Some molecules with recorded residence time:
[[record]]
molecule = "COCCN1CCC2(CCN(C(=O)Nc3cc(-c4ccc(F)cc4)ccc3N)CC2)C1 [Compound 138]"
quantity = "residence time"
result = "724 min"

[[record]]
molecule = "N#CC1CCc2nc(C(=O)Nc3cc(-c4ccc(F)cc4)ccc3N)cn2C1 (stereo not drawn) [Compound 128]"
quantity = "residence time"
result = "1730 min"

[[record]]
molecule = "Nc1ccc(-c2ccncn2)cc1NC(=O)N1Cc2ccncc2C1 [Compound 103]"
quantity = "residence time"
result = "330 min"

[[record]]
molecule = "Nc1ccc(-c2ccc(F)c(F)c2)cc1NC(=O)N1Cc2ccncc2C1 [Compound 135]"
quantity = "residence time"
result = "353 min"

[[record]]
molecule = "CCOC(=O)N1CC2CN(C(=O)Nc3cc(-c4ccc(F)cc4)ccc3N)CC2C1 (stereo not drawn) [Compound 155]"
quantity = "residence time"
result = "1630 min"


*Q* Using the record for Nc1ccc(-c2ccc(F)cc2)cc1NC(=O)N1CCC2(CC1)COC2 [Compound 127] , report its residence time.
*A* 1520 min

*Q* Next up: Nc1ccc(-c2ccc(F)cc2)cc1NC(=O)N1CCC2(CCOCC2)C1 [Compound 172]
*A* 299 min

*Q* Next up: CC(C)(C)OC(=O)N1CCC2(CCN(C(=O)Nc3cc(-c4ccc(F)cc4)ccc3N)CC2)C1 [Compound 161]
*A* 1170 min

*Q* Next up: Nc1ccc(-c2ccncc2)cc1NC(=O)N1Cc2nccnc2C1 [Compound 101]
*A* 906 min

*Q* Next up: Nc1ccc(-c2ccc(F)cc2)cc1NC(=O)c1nc2c(s1)CCNC2 [Compound 175]
*A* 1170 min

*Q* Next up: Nc1ccc(-c2ccncc2)cc1NC(=O)c1nc2c(s1)CCNC2 [Compound 174]
*A* 1350 min
